# credit: paper PMC7529705

Target: WD-40 repeat-containing protein 5 (WDR5), full-length (human, UniProt P61964 1-334)
Assay: ITC
Value type: pKd
// pKd is dimensionless: -log10 of concentration (M)

Entry ARTKQTARKSTG [Histone H3 1–12aa unmodified peptide] — recorded pKd = 4.97
